- Measurement target: Integrin beta-1 (Homo sapiens) + Integrin alpha-4 (Homo sapiens) (UniProt P13612+P05556)
- Sequence (P05556 whole entry, looked up): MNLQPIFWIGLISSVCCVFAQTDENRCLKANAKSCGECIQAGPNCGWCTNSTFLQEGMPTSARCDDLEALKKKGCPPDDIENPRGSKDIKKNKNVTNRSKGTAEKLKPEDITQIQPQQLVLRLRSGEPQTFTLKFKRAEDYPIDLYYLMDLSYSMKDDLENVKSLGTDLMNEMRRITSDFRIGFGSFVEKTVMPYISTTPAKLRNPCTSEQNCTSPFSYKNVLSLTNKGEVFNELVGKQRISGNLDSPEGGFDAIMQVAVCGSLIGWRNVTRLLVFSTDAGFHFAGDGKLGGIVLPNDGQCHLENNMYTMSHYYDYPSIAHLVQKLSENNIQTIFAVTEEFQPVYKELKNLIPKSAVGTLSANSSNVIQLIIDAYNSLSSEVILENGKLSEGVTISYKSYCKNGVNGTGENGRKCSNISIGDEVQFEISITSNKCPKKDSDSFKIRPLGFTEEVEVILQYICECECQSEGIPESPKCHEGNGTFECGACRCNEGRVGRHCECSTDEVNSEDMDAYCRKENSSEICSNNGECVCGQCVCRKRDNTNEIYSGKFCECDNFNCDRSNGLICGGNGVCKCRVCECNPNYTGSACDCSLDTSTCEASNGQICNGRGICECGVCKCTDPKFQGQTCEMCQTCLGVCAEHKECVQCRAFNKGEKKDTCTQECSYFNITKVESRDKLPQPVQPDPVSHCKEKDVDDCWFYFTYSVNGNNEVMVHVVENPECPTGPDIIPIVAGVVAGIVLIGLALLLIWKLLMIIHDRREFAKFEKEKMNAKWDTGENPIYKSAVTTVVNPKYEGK
- Sequence (P13612 whole entry, looked up): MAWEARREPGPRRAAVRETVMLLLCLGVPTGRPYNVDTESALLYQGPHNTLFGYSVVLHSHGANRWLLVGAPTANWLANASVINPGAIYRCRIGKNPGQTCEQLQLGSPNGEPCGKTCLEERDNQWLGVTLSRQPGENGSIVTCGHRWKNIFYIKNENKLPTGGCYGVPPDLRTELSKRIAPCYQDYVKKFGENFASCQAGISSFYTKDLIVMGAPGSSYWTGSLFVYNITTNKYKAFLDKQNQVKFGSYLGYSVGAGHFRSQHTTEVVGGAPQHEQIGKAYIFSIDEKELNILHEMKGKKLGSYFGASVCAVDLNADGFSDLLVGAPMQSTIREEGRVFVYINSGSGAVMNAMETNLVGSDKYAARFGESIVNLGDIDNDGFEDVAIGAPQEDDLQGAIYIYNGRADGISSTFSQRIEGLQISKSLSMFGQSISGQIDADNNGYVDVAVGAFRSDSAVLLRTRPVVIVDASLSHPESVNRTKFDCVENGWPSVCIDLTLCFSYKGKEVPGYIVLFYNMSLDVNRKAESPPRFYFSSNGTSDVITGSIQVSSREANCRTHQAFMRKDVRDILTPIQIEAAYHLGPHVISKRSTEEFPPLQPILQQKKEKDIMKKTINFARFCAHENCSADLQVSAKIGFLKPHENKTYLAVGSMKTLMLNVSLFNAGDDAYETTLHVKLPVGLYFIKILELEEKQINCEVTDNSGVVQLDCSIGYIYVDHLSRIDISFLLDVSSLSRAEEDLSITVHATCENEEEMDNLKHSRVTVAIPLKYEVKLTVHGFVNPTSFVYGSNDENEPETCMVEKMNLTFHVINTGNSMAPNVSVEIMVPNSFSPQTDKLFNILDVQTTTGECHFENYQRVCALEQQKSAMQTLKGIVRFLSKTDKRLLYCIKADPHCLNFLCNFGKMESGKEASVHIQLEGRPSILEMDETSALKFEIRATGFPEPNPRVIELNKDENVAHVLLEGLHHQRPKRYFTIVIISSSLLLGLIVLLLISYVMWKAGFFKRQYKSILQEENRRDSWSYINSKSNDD
- Test description: alpha4beta1 integrin LIBS antibody binding reduction – U937 cells, HUTS-21 mAb, flow cytometry, validation set, VLA-4 allosteric modulator project, pilot screen (AID 2674);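 further: antibody binding induced by the VLA-4 ligand LDV present at three times its Kd; 0% = LDV ligand with antibody and no compound and 100% = antibody without LDV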
- Test parameters: HUTS-21 LIBS mAb binding, at 6.7 µM, active compounds read high, binding induced by LDV ligand
Endpoint label: inhibition (%)
Give the value, in units of %, as a plain number.

Molecule	Measurement unit	inhibition
COc1cccc2c(=O)c(C/C=C(/C)Cl)c(C)[nH]c12	%	6.4
COc1ccc(OC)c(S(=O)(=O)N2CCCc3ccccc32)c1	%	15
CCC(NC(C)C)C(O)c1ccc(O)c(O)c1 (stereo not drawn)	%	-11.3
O=C(CC(NC(=O)OCc1ccccc1)C(=O)O)OCc1ccccc1 (stereo not drawn)	%	18.2
CC(=O)Nc1ccc2[nH]c(C)c(CC=C(Cl)Cl)c(=O)c2c1	%	12.6

Record summary for Nc1ccc(S(N)(=O)=O)cc1N : reported inhibition = 3.55

Record summary for CN1C(C(=O)Nc2ccccn2)=C(O)c2sccc2S1(=O)=O : reported inhibition = -2.43

Record summary for CCC(C)n1ncn(-c2ccc(N3CCN(c4ccc(OCC5COC(Cn6cncn6)(c6ccc(Cl)cc6Cl)O5)cc4)CC3)cc2)c1=O (stereo not drawn) : reported inhibition = 3.98

Record summary for O=C1c2ccccc2C2(c3ccccc3)NCCN12 (stereo not drawn) : reported inhibition = -14.5

Record summary for O=C1CCc2cc(OCCCCc3nnnn3C3CCCCC3)ccc2N1 : reported inhibition = -5.18

Record summary for O=C(O)c1cccnc1Nc1cccc(C(F)(F)F)c1 : reported inhibition = 7.43

Record summary for COC(=O)c1sccc1NC(=O)Nc1ccccc1F : reported inhibition = 5.61
